- study_system: Heat shock factor protein 1 (Mus musculus)
- Sequence (P38532 whole entry): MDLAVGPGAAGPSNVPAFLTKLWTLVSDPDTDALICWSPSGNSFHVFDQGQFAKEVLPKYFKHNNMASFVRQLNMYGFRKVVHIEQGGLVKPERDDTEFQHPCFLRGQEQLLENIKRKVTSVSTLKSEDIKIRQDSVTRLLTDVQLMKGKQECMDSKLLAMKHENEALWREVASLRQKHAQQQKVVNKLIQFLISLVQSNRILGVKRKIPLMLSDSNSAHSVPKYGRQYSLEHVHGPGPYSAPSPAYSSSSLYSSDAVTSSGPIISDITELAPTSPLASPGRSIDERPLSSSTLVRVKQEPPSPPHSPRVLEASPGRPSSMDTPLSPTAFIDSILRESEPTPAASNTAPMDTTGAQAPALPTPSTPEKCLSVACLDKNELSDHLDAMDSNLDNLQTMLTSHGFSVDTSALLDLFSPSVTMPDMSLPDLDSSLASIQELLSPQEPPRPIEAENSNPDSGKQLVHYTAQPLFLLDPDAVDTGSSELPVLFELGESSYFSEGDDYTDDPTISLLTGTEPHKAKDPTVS
- method_notes: decrease of HSF1-responsive luciferase luminescence – cell-based, NIH3T3, dose retest, confirmation (AID 2382);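 also: NIH3T3 fibroblasts with HSF1-driven luciferase reporter stressed by proteasome inhibitor MG132; luminescence from HSF1-driven luciferase expression after 8 hours of MG132 stress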
- Assay type: functional
Activity calls are given as the source filed them. Rule as the data show it: actives have a measured EC50 and inactives only a lower limit.
quantity_kind: EC50

Some solved entries appear below for comparison.
COc1ccc(C(=O)/C=C/C(=O)N(CC(=O)NC2CCCCC2)Cc2ccc(F)cc2)c(O)c1 5.29 µM (active)
Cc1cc(OCC(=O)NCCO)cc(C)c1Cl > 195 µM (not active)
CNC(=O)NC(=O)COC(=O)c1ccc(-n2c(C)ccc2C)cc1 > 195 µM (not active)
Cc1ccc(/C=C/C(=O)OCC(=O)NCCN2C(=O)CSC2=O)o1 > 195 µM (not active)
COc1cc(NS(=O)(=O)c2ccc(NC(=O)/C=C/C(=O)O)cc2)nc(OC)n1 > 195 µM (not active)

I'd like to know its EC50. The compound in question is O=C(CSc1c[nH]nn1)Nc1ccc(O)c(C(=O)O)c1 > 195 µM (not active)

Entry COc1cc(C=O)ccc1OC(=O)c1ccc(C(C)C)cc1 please > 195 µM (not active)

Entry O=C(CSc1nc2ccccc2s1)N/N=C/c1ccccc1C(=O)O please 5.59 µM (active)

Entry COc1ccc(/C=C/C(=O)N2CCC(C(N)=O)CC2)cc1S(=O)(=O)N1CCOCC1 please > 195 µM (not active)

Hello, the source for this data is ChEMBL document CHEMBL1201862, in case you need it.
